# ASSAY TARGET: T1, recombinant human IL6R-his (human, UniProt P08887 20-365)
# T1 construct: In house made; the entry includes the C-terminal His tag; also called human IL6R-his protein
# T1 sequence: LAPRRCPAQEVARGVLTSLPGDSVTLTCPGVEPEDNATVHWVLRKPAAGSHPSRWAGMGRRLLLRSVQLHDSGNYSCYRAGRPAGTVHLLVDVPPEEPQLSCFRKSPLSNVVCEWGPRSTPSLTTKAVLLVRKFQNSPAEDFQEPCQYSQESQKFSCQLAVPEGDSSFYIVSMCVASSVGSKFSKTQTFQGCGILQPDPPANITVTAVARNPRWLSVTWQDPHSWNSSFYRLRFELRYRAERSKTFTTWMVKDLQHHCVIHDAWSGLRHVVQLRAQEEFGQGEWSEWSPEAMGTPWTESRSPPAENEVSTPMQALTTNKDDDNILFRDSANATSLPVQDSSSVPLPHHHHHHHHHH
# EXPERIMENT NOTES: SPR Biacore T200; mAb captured by anti-mouse IgG on CM5, antigen in flow, 1:1 fit

| BINDER | UNIT STRING | koff |
| --- | --- | --- |
| mouse anti-IL6R monoclonal antibody 1G1 (antibody, V domains shown, Mouse hybridoma mAb) VH: QVQLQQPGAELVKPGASVKLSCKASGYTFTSYWMHWVKVRPGQGLEWIGEINPTNGRTNYNEDFKSKATLTVESSSSTAYMQFSSLTSEDSAVYYCARLNTHYVFDYWGQGTTLTVSS VL: EIVLTQSPTILAASPGEKITFTCSVSSSISSNYLHWYQQKPGFSPKLLIYRTSNLASGVPARFSGSGSGTSYSLTIGTMEAEDVATYYCQQGSGIPFTFGSGTKLEIK | s⁻¹ | 9.09e-05 |
| mouse anti-IL6R monoclonal antibody 1F7 (antibody, V domains shown, Mouse hybridoma mAb) VH: QVQLQQPGAELVKPGASVKLSCKASDYTFTSYWMHWVKQRPGQGLEWIGEINPSNGRTNYNEKFKNKATLTVDKSSSTAYVQLYSLTSEDSAVYYCARLSIHYVFDYWGQGTTLTVSS VL: ELVLTQSPTTMAASPGEKITFTCSASSSISSNYLHWYQQKPGFSPKLLISGTSNLASGVPPRFSGSGSGTSYSLTIVTMEAEDVATYYCQQGSGIPFTFGSGTKLEIK | s⁻¹ | 7.46e-05 |
| mouse anti-IL6R monoclonal antibody 1A3 (antibody, V domains shown, Mouse hybridoma mAb purified on Protein A) VH: QVQLQQPGAELVKPGASVKLSCKASGYTFTSYWMHWVKQRPAQGLEWIGEINPSNGRTNFNEKFKTKATLTVDKSSNTAYMQLSSLTSEDSAVYSCLRLNTHYVFDYWGQGTTLTVSS VL: EIVLTQSPTTMAASPGEKITITCSASSSISSNYLHWYQQKPGFSPKLLISRTSNLASGVPTRFSGSGSGTSYSLTIGTMEAGDVATYYCQQGSGIPFTFGSGTKLEIK | s⁻¹ | 4.32e-05 |
| mouse anti-IL6R monoclonal antibody 1D4 (antibody, V domains shown, Mouse hybridoma mAb) VH: QVQLQQPGAELVKPGASVKLSCKASGYTFTSYWMHWVKVRPGQGLEWIGEINPTNGRTNYNEDFKSKATLTVNSSSSTAYMQLSSLTSEDSAVYYCARLNTHYVFDYWGQGTTLTVSS VL: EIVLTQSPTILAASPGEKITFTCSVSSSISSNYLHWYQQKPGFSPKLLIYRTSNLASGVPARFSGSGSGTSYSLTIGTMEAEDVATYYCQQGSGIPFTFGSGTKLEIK | s⁻¹ | 8.64e-05 |
| mouse anti-IL6R monoclonal antibody 3C2 (antibody, V domains shown, Mouse hybridoma mAb) VH: QVQLQQPGTELVKPGASVKLSCKASGYTFTTYWIHWVKQRPGQGLEWIGEINPSNGRTNYNEHFKSKATLTVDKSSSTASMQLSSLTSADSAVYYCARLNTHYVFDSWGQGTTLTVSS VL: EIVLTQSPTTMAASPGEKITITCSASSSISSNYLHWYQQKPGFSPKLLIYRTSNLASGVPTHFSGSGSGTSYSLTIGTMEAEDVATYYCQQGSGIPFTFGSGTKLEIK | s⁻¹ | 0.000135 |

These entries and their values trace back to patent US20230167182A1.
